- testedSystem: NHE3 (Homo sapiens, UniProt P48764)
- Construct: expressed in transfected cells
- Sequence (P48764 26-834): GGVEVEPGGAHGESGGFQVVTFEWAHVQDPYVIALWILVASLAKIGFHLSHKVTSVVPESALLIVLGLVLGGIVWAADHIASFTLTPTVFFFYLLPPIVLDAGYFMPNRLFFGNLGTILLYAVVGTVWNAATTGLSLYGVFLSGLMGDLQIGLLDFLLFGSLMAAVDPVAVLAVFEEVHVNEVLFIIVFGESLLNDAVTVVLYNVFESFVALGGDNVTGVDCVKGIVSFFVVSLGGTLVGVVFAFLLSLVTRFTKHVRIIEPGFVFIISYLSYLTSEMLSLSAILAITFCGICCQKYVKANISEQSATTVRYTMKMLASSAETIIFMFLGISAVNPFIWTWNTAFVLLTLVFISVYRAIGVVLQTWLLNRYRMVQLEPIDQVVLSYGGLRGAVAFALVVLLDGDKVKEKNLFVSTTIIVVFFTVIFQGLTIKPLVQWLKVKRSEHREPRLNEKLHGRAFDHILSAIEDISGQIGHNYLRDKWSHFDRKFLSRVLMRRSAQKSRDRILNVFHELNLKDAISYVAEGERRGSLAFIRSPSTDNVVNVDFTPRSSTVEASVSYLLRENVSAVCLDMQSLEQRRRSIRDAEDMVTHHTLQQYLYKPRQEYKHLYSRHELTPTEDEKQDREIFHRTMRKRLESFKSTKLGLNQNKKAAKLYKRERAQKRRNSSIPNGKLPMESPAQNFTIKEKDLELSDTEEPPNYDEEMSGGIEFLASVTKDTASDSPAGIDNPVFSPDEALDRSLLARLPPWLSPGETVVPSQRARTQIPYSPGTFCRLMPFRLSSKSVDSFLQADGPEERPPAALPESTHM
- Sequence (Q99653 2-195 partner limits assumed): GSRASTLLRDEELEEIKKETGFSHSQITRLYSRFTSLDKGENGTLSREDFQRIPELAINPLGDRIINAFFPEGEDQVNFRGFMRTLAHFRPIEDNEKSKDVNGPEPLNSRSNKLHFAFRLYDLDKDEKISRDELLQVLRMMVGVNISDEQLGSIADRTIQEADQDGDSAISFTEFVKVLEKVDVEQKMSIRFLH
- procedureSummary: persistent inhibition of NHE3 in the cell-based assay of example 181 (4-chloro vs 4-cyano pairs)
- assayConditions: cell-based assay of example 181, persistent
endpoint: Percent Inhibition (%)

For orientation, consider the following solved cases.
givenSmiles | unit | Percent Inhibition
C[C@@H]1CN([C@H]2Cc3c(C#N)cc(Cl)cc3[C@@H]2Oc2ccc(S(=O)(=O)N[C@H]3CCN(C(=O)CNC(=O)CNC(=O)NCCCCNC(=O)NCC(=O)NCC(=O)N4CC[C@H](NS(=O)(=O)c5ccc(O[C@H]6c7cc(Cl)cc(C#N)c7C[C@@H]6N6CCN[C@H](C)C6)cc5)C4)C3)cc2)CCN1 | % | 110
Cc1cc(S(=O)(=O)NCCOCCOCCNC(=O)NCCCCNC(=O)NCCOCCOCCNS(=O)(=O)c2ccc(O[C@H]3c4cc(Cl)cc(C#N)c4C[C@@H]3N3CCNCC3)c(C)c2)ccc1O[C@H]1c2cc(Cl)cc(C#N)c2C[C@@H]1N1CCNCC1 | % | 88

A: CN(C)[C@@H]1CCCN([C@H]2Cc3c(Cl)cc(Cl)cc3[C@@H]2Oc2ccc(S(=O)(=O)NCCOCCOCCNC(=O)NCCCCNC(=O)NCCOCCOCCNS(=O)(=O)c3ccc(O[C@H]4c5cc(Cl)cc(Cl)c5C[C@@H]4N4CCC[C@@H](N(C)C)C4)cc3)cc2)C1
B: CN(C)[C@@H]1CCCN([C@H]2Cc3c(C#N)cc(Cl)cc3[C@@H]2Oc2ccc(S(=O)(=O)NCCOCCOCCNC(=O)NCCCCNC(=O)NCCOCCOCCNS(=O)(=O)c3ccc(O[C@H]4c5cc(Cl)cc(C#N)c5C[C@@H]4N4CCC[C@@H](N(C)C)C4)cc3)cc2)C1
Inquiry: Higher Percent Inhibition: A or B ? Indicate which entry you chose by stating its label.
Reply text: A

---

- testedSystem: NHE3 (Homo sapiens)
- Construct: expressed in transfected cells
- procedureSummary: persistent inhibition of NHE3 in the cell-based assay of example 181 (4-chloro vs 4-cyano pairs)
- assayConditions: cell-based assay of example 181, after washout; read-out: pIC50 (persistent) (converted)
endpoint: IC50 (nM)

1: CN(C)[C@@H]1CCCN([C@H]2Cc3c(Cl)cc(Cl)cc3[C@@H]2Oc2ccc(S(=O)(=O)NCCOCCOCCNC(=O)NCCCCNC(=O)NCCOCCOCCNS(=O)(=O)c3ccc(O[C@H]4c5cc(Cl)cc(Cl)c5C[C@@H]4N4CCC[C@@H](N(C)C)C4)cc3)cc2)C1
2: C[C@@H]1CN([C@H]2Cc3c(Cl)cc(Cl)cc3[C@@H]2Oc2ccc(S(=O)(=O)N[C@H]3CCN(CCOCCNC(=O)NCCCCNC(=O)NCCOCCN4CC[C@H](NS(=O)(=O)c5ccc(O[C@H]6c7cc(Cl)cc(Cl)c7C[C@@H]6N6CCN[C@H](C)C6)cc5)C4)C3)cc2)CCN1
Inquiry: Looking at 1 and 2 , which one comes out lower in IC50 terms? Indicate which entry you chose by stating its label.
Reply text: 2

---

- testedSystem: NHE3 (Homo sapiens, UniProt P48764)
- Construct: expressed in transfected cells
- procedureSummary: Cell-based assay of NHE-3 activity (pre-incubation inhibition), human
- assayConditions: human Preincubation
endpoint: % inhibition

givenSmiles | experimentalValue
Cc1cc(S(=O)(=O)NCCOCCOCCNC(=O)NCCCCNC(=O)NCCOCCOCCNS(=O)(=O)c2ccc(O[C@H]3c4cc(Cl)cc(C#N)c4C[C@@H]3N3CCNCC3)c(C)c2)ccc1O[C@H]1c2cc(Cl)cc(C#N)c2C[C@@H]1N1CCNCC1 | C (>70%)
N[C@@H]1CCCN([C@H]2Cc3c(Cl)cc(Cl)cc3[C@@H]2Oc2ccc(S(=O)(=O)NCCCCCCn3cc(CNC(=O)NCCCCNC(=O)NCc4cn(CCCCCCNS(=O)(=O)c5ccc(O[C@H]6c7cc(Cl)cc(Cl)c7C[C@@H]6N6CCC[C@@H](N)C6)cc5)nn4)nn3)cc2)C1 | C (>70%)
